Cited source for all entries: paper PMC8979966

STUDY_TARGET: TCR 868 (single-chain Vbeta-linker-Valpha)
EXPERIMENTAL_PROTOCOL: YAMTAD: yeast mating between pMHC-displaying and TCR-displaying yeast, diploid selection, deep sequencing; 3 biological x 4 technical repeats
CONDITION_SET: S. cerevisiae mating; TCR 868 group vs control TCR A6 group; higher = more enriched with TCR 868 than with the control TCR A6; not monotonic in affinity (misses both ways); not an affinity; keep out of graded; partner unresolved; scale: ratio: mean frequency with TCR 868 / mean frequency with control TCR A6, each normalised to the 3* stop peptide; numbering: sequential-on-construct, sequence starts at 1
QUANTITY_MEASURED: screen value
Just the number, please.

Please review the entries below; each comes with its answer.
[[record]]
substance = "SL9 peptide (HIV-1 Gag, […]) presented by HLA-A*02:01 3A (SLANTVATL; codon GCG)"
quantity_measured = "screen value"
observed = 1.01

[[record]]
substance = "SL9 peptide (HIV-1 Gag, […]) presented by HLA-A*02:01 3Q (SLQNTVATL; codon CAG)"
quantity_measured = "screen value"
observed = 1.16

[[record]]
substance = "SL9 peptide (HIV-1 Gag, […]) presented by HLA-A*02:01 3R (SLRNTVATL; codon CGT)"
quantity_measured = "screen value"
observed = 1.04

[[record]]
substance = "SL9 peptide (HIV-1 Gag, […]) presented by HLA-A*02:01 3L (SLLNTVATL; codon TTG)"
quantity_measured = "screen value"
observed = 1.84

[[record]]
substance = "SL9 peptide (HIV-1 Gag, […]) presented by HLA-A*02:01 3R (SLRNTVATL; codon AGG)"
quantity_measured = "screen value"
observed = 1.06


GET /value?item= SL9 peptide (HIV-1 Gag, […]) presented by HLA-A*02:01 3W (SLWNTVATL; codon TGG) &field=screen value returns 1.2

GET /value?item= SL9 peptide (HIV-1 Gag, […]) presented by HLA-A*02:01 3N (SLNNTVATL; codon AAT) &field=screen value returns 0.989

GET /value?item= SL9 peptide (HIV-1 Gag, […]) presented by HLA-A*02:01 3P (SLPNTVATL; codon CCG) &field=screen value returns 1.03

GET /value?item= SL9 peptide (HIV-1 Gag, […]) presented by HLA-A*02:01 3A (SLANTVATL; codon GCT) &field=screen value returns 1.12

GET /value?item= SL9 peptide (HIV-1 Gag, […]) presented by HLA-A*02:01 3I (SLINTVATL; codon ATT) &field=screen value returns 1.28

###

STUDY_TARGET: TCR 868 (single-chain Vbeta-linker-Valpha)
EXPERIMENTAL_PROTOCOL: YAMTAD: yeast mating between pMHC-displaying and TCR-displaying yeast, diploid selection, deep sequencing; 3 biological x 4 technical repeats
CONDITION_SET: S. cerevisiae mating; TCR 868 group vs control TCR A6 group; higher = more enriched with TCR 868 than with the control TCR A6; not monotonic in affinity (misses both ways); not an affinity; keep out of graded; partner unresolved; scale: ratio: mean frequency with TCR 868 / mean frequency with control TCR A6, each normalised to the 3* stop peptide; numbering: sequential-on-construct, sequence starts at 1
Would you mind labelling by screen value? At or over 1 is TRUE, under is FALSE.

Please review the entries below; each comes with its answer.
[[record]]
substance = "SL9 peptide (HIV-1 Gag, […]) presented by HLA-A*02:01 3G (SLGNTVATL; codon GGG)"
label = "FALSE"

[[record]]
substance = "SL9 peptide (HIV-1 Gag, […]) presented by HLA-A*02:01 3F (SLFNTVATL; codon TTT)"
label = "TRUE"

[[record]]
substance = "SL9 peptide (HIV-1 Gag, […]) presented by HLA-A*02:01 3S (SLSNTVATL; codon AGT)"
label = "TRUE"

[[record]]
substance = "SL9 peptide (HIV-1 Gag, […]) presented by HLA-A*02:01 3L (SLLNTVATL; codon CTT)"
label = "TRUE"

[[record]]
substance = "SL9 peptide (HIV-1 Gag, […]) presented by HLA-A*02:01 3L (SLLNTVATL; codon CTG)"
label = "TRUE"

[[record]]
substance = "SL9 peptide (HIV-1 Gag, […]) presented by HLA-A*02:01 3H (SLHNTVATL; codon CAT)"
label = "TRUE"

[[record]]
substance = "SL9 peptide (HIV-1 Gag, […]) presented by HLA-A*02:01 3V (SLVNTVATL; codon GTG)"
label = "TRUE"

[[record]]
substance = "SL9 peptide (HIV-1 Gag, […]) presented by HLA-A*02:01 3G (SLGNTVATL; codon GGT)"
label = "FALSE"


*Q* Is screen value at least 1? Consider SL9 peptide (HIV-1 Gag, […]) presented by HLA-A*02:01 3S (SLSNTVATL; codon TCG)
*A* TRUE

*Q* Is screen value at least 1? Consider SL9 peptide (HIV-1 Gag, […]) presented by HLA-A*02:01 3C (SLCNTVATL; codon TGT)
*A* TRUE

*Q* Is screen value at least 1? Consider SL9 peptide (HIV-1 Gag, […]) presented by HLA-A*02:01 3M (SLMNTVATL; codon ATG)
*A* TRUE

*Q* Is screen value at least 1? Consider SL9 peptide (HIV-1 Gag, […]) presented by HLA-A*02:01 3D (SLDNTVATL; codon GAT)
*A* TRUE

*Q* Is screen value at least 1? Consider SL9 peptide (HIV-1 Gag, […]) presented by HLA-A*02:01 3K (SLKNTVATL; codon AAG)
*A* TRUE

*Q* Is screen value at least 1? Consider SL9 peptide (HIV-1 Gag, […]) presented by HLA-A*02:01 3E (SLENTVATL; codon GAG)
*A* FALSE

*Q* Is screen value at least 1? Consider SL9 peptide (HIV-1 Gag, […]) presented by HLA-A*02:01 3S (SLSNTVATL; codon TCT)
*A* TRUE

*Q* Is screen value at least 1? Consider SL9 peptide (HIV-1 Gag, […]) presented by HLA-A*02:01 3R (SLRNTVATL; codon CGG)
*A* TRUE

*Q* Is screen value at least 1? Consider SL9 peptide (HIV-1 Gag, […]) presented by HLA-A*02:01 3V (SLVNTVATL; codon GTT)
*A* TRUE
